Data provenance is paper PMC6270976.

Test: Plasma pharmacokinetics of G–A after a single oral dose in ICR mice (HPLC, PKSolver)
Format: in vivo
Details: ICR, mouse, plasma, po, 200 mg/kg, plasma, two-compartment model, oral 200 mg/kg, read-out: V/F (apparent volume of distribution)

| compound | Vd/F, L/kg |
| --- | --- |
| COC(=O)[C@@]12CC[C@]3(C)C([C@H](O)[C@H](O)[C@@]4([C@@H](C)O)COC(=O)C=C[C@H]43)[C@@]1(C)CC[C@@]1(C)CC=C(C)C[C@]12O (stereo partly shown) | 55.5 |

====

Assay: Plasma pharmacokinetics of G–A after a single oral dose in ICR mice (HPLC, PKSolver)
Format: in vivo
Details: ICR, mouse, plasma, po, 200 mg/kg, one-compartment model, oral 200 mg/kg

| compound | Tmax |
| --- | --- |
| COC(=O)[C@@]12CC[C@]3(C)C([C@H](O)[C@H](O)[C@@]4([C@@H](C)O)COC(=O)C=C[C@H]43)[C@@]1(C)CC[C@@]1(C)CC=C(C)C[C@]12O (stereo partly shown) [G–A, galphimine-A] | 26.2 min |

====

Experiment: Brain tissue pharmacokinetics of G–A after a single oral dose in ICR mice (HPLC, PKSolver)
Assay type: in vivo
Conditions: mouse, brain tissue, oral 200 mg/kg, n = 8
measured attribute: AUC(0-inf) (ng·h/mL)

| compound | measured attribute | number |
| --- | --- | --- |
| COC(=O)[C@@]12CC[C@]3(C)C([C@H](O)[C@H](O)[C@@]4([C@@H](C)O)COC(=O)C=C[C@H]43)[C@@]1(C)CC[C@@]1(C)CC=C(C)C[C@]12O (stereo partly shown) [G–A, galphimine-A] | AUC(0-inf) | 58700 |

====

Experiment: Plasma pharmacokinetics of G–A after a single oral dose in ICR mice (HPLC, PKSolver)
Type: in vivo
Conditions: mouse, plasma, 240 min after single oral 200 mg/kg, mean ± S.E.M., n = 8

| compound | concentration at 240 min |
| --- | --- |
| COC(=O)[C@@]12CC[C@]3(C)C([C@H](O)[C@H](O)[C@@]4([C@@H](C)O)COC(=O)C=C[C@H]43)[C@@]1(C)CC[C@@]1(C)CC=C(C)C[C@]12O (stereo partly shown) | 2330 ng/mL |

====

Experiment: Plasma pharmacokinetics of G–A after a single oral dose in ICR mice (HPLC, PKSolver)
Assay type: in vivo
Settings: ICR, mouse, plasma, po, 200 mg/kg, plasma, two-compartment model, oral 200 mg/kg, read-out: CL/F (apparent clearance)

| compound | units of measure | CL/F |
| --- | --- | --- |
| COC(=O)[C@@]12CC[C@]3(C)C([C@H](O)[C@H](O)[C@@]4([C@@H](C)O)COC(=O)C=C[C@H]43)[C@@]1(C)CC[C@@]1(C)CC=C(C)C[C@]12O (stereo partly shown) [G–A, galphimine-A] | mL/min/kg | 98 |

====

Assay: Plasma pharmacokinetics of G–A after a single oral dose in ICR mice (HPLC, PKSolver)
Type: in vivo
Conditions: ICR, mouse, plasma, po, 200 mg/kg, plasma, one-compartment model, oral 200 mg/kg, read-out: AUC0-1440 min (converted)

| molecule | AUC(0-t) / ng·h/mL |
| --- | --- |
| COC(=O)[C@@]12CC[C@]3(C)C([C@H](O)[C@H](O)[C@@]4([C@@H](C)O)COC(=O)C=C[C@H]43)[C@@]1(C)CC[C@@]1(C)CC=C(C)C[C@]12O (stereo partly shown) | 32500 |

====

Experiment: Plasma pharmacokinetics of G–A after a single oral dose in ICR mice (HPLC, PKSolver)
Type: in vivo
Conditions: ICR, mouse, plasma, po, 200 mg/kg, two-compartment model, oral 200 mg/kg
measured attribute: AUC(0-inf) (ng·h/mL)

| compound | number |
| --- | --- |
| COC(=O)[C@@]12CC[C@]3(C)C([C@H](O)[C@H](O)[C@@]4([C@@H](C)O)COC(=O)C=C[C@H]43)[C@@]1(C)CC[C@@]1(C)CC=C(C)C[C@]12O (stereo partly shown) | 33800 |

====

Experiment: Plasma pharmacokinetics of G–A after a single oral dose in ICR mice (HPLC, PKSolver)
Type: in vivo
Conditions: ICR, mouse, plasma, po, 200 mg/kg, plasma, two-compartment model, oral 200 mg/kg, read-out: k10 (elimination rate constant) (converted)
measured attribute: k el (s⁻¹)

| compound | number |
| --- | --- |
| COC(=O)[C@@]12CC[C@]3(C)C([C@H](O)[C@H](O)[C@@]4([C@@H](C)O)COC(=O)C=C[C@H]43)[C@@]1(C)CC[C@@]1(C)CC=C(C)C[C@]12O (stereo partly shown) | 2.83e-05 |

====

Test: Plasma pharmacokinetics of G–A after a single oral dose in ICR mice (HPLC, PKSolver)
Format: in vivo
Conditions: ICR, mouse, plasma, po, 200 mg/kg, plasma, two-compartment model, oral 200 mg/kg, read-out: AUC0-1440 min (converted)

| compound | AUC(0-t) |
| --- | --- |
| COC(=O)[C@@]12CC[C@]3(C)C([C@H](O)[C@H](O)[C@@]4([C@@H](C)O)COC(=O)C=C[C@H]43)[C@@]1(C)CC[C@@]1(C)CC=C(C)C[C@]12O (stereo partly shown) [G–A, galphimine-A] | 30400 ng·h/mL |

====

Assay: Plasma pharmacokinetics of G–A after a single oral dose in ICR mice (HPLC, PKSolver)
Format: in vivo
Settings: mouse, plasma, 30 min after single oral 200 mg/kg, mean ± S.E.M., n = 8

| molecule | concentration at 30 min / ng/mL |
| --- | --- |
| COC(=O)[C@@]12CC[C@]3(C)C([C@H](O)[C@H](O)[C@@]4([C@@H](C)O)COC(=O)C=C[C@H]43)[C@@]1(C)CC[C@@]1(C)CC=C(C)C[C@]12O (stereo partly shown) | 3700 |

====

Test: Plasma pharmacokinetics of G–A after a single oral dose in ICR mice (HPLC, PKSolver)
Type: in vivo
Settings: ICR, mouse, plasma, po, 200 mg/kg, plasma, one-compartment model, oral 200 mg/kg, read-out: CL/F (apparent clearance)
measured attribute: CL/F (mL/min/kg)

| compound | number |
| --- | --- |
| COC(=O)[C@@]12CC[C@]3(C)C([C@H](O)[C@H](O)[C@@]4([C@@H](C)O)COC(=O)C=C[C@H]43)[C@@]1(C)CC[C@@]1(C)CC=C(C)C[C@]12O (stereo partly shown) [G–A, galphimine-A] | 92 |

====

Test: Plasma pharmacokinetics of G–A after a single oral dose in ICR mice (HPLC, PKSolver)
Assay type: in vivo
Settings: mouse, plasma, 10 min after single oral 200 mg/kg, mean ± S.E.M., n = 8

| compound | units of measure | concentration at 10 min |
| --- | --- | --- |
| COC(=O)[C@@]12CC[C@]3(C)C([C@H](O)[C@H](O)[C@@]4([C@@H](C)O)COC(=O)C=C[C@H]43)[C@@]1(C)CC[C@@]1(C)CC=C(C)C[C@]12O (stereo partly shown) [G–A, galphimine-A] | ng/mL | 2570 |

====

Assay: Plasma pharmacokinetics of G–A after a single oral dose in ICR mice (HPLC, PKSolver)
Type: in vivo
Details: ICR, mouse, plasma, po, 200 mg/kg, two-compartment model, oral 200 mg/kg
measured attribute: Tmax (min)

| compound | measured attribute | number |
| --- | --- | --- |
| COC(=O)[C@@]12CC[C@]3(C)C([C@H](O)[C@H](O)[C@@]4([C@@H](C)O)COC(=O)C=C[C@H]43)[C@@]1(C)CC[C@@]1(C)CC=C(C)C[C@]12O (stereo partly shown) | Tmax | 27.4 |

====

Assay: Plasma pharmacokinetics of G–A after a single oral dose in ICR mice (HPLC, PKSolver)
Assay type: in vivo
Details: ICR, mouse, plasma, po, 200 mg/kg, plasma, two-compartment model, oral 200 mg/kg, read-out: k10 (apparent first-order elimination rate constant) (converted)

| compound | k el / s⁻¹ |
| --- | --- |
| COC(=O)[C@@]12CC[C@]3(C)C([C@H](O)[C@H](O)[C@@]4([C@@H](C)O)COC(=O)C=C[C@H]43)[C@@]1(C)CC[C@@]1(C)CC=C(C)C[C@]12O (stereo partly shown) [G–A, galphimine-A] | 2.83e-05 |

====

Test: Brain tissue pharmacokinetics of G–A after a single oral dose in ICR mice (HPLC, PKSolver)
Format: in vivo
Conditions: mouse, brain, 10 min after single oral 200 mg/kg, mean ± S.E.M., n = 8

| molecule | concentration at 10 min |
| --- | --- |
| COC(=O)[C@@]12CC[C@]3(C)C([C@H](O)[C@H](O)[C@@]4([C@@H](C)O)COC(=O)C=C[C@H]43)[C@@]1(C)CC[C@@]1(C)CC=C(C)C[C@]12O (stereo partly shown) | 880 ng/mL |
